All values here come from patent US20230233569A1.

In this section we review reported pIC50 values for a set of compounds.
Biological target: KRAS G13C (Homo sapiens, UniProt P01116+P62937, G13C)
Sequence (P01116 1-169 isoform P01116-2 G13C limits assumed): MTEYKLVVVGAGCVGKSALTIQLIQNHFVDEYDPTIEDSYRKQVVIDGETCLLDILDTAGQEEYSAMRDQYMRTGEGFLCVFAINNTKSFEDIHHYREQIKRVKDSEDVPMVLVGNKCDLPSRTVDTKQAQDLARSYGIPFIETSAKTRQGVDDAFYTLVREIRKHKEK
Sequence (P62937 whole entry): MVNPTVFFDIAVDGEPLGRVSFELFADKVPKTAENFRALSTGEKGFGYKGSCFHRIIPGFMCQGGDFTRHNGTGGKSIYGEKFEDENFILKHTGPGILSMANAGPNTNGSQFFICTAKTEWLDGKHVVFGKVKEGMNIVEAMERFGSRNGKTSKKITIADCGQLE
Test: Ras-Raf disruption / FRET / MOA assay (BRAF RBD)
Assay type: biochemical
Conditions: Ras-Raf disruption, with Cyclophilin A; read-out: KRAS G13C FRET data IC50
Description: Disruption of […] Ras-binding Domain (BRAF^RBD) Interaction with K-Ras by Compounds of the Invention (also Called a FRET Assay or an MOA Assay) Note—The following protocol describes a procedure for monitoring disruption of K-Ras G12C (GMP-PNP) binding to BRAF^RBD by a compound of the invention. This protocol may also be executed substituting other Ras proteins or nucleotides, such as K-Ras G12D and K-Ras G13D. […]
pIC50: −log10 of the molar value.
ENDPOINT NAME: pIC50

# COMPOUND, RESULT VALUE
data = [
    ("CCn1c(-c2cccnc2[C@H](C)OC)c2c3cc(ccc31)-c1cc(O)cc(c1)C[C@H](NC(=O)[C@H](C(C)C)N(C)C(=O)[C@H]1C[C@@H]3N[C@@H]3C1)C(=O)N1CCC[C@H](N1)C(=O)OCC(C)(C)C2 (atropisomer, axis not shown)", "7.00 to 8.00"),
    ("CCn1c(-c2cccnc2[C@H](C)OC)c2c3cc(ccc31)-c1cc(O)cc(c1)C[C@H](NC(=O)[C@H](C(C)C)N(C)C(=O)N(C)CCN(C)C(=O)[C@H]1CN1)C(=O)N1CCC[C@H](N1)C(=O)OCC(C)(C)C2 (atropisomer, axis not shown)", "7.00 to 8.00"),
    ("CCn1c(-c2cccnc2[C@H](C)OC)c2c3cc(ccc31)-c1csc(n1)C[C@H](NC(=O)[C@H](C(C)C)N(C)C(=O)N(C)[C@H]1CCCN(C(=O)[C@H]3CN3)C1)C(=O)N1CCC[C@H](N1)C(=O)OCC(C)(C)C2 (atropisomer, axis not shown)", "5.00 to 6.00"),
    ("CCOC(=O)[C@H]1O[C@@H]1C(=O)N1CC[C@H](C(=O)N(C)[C@H](C(=O)N[C@H]2Cc3cc(O)cc(c3)-c3ccc4c(c3)c(c(-c3cccnc3[C@H](C)OC)n4CC)CC(C)(C)COC(=O)[C@@H]3CCCN(N3)C2=O)C(C)C)C1", "> 8.00"),
    ("CCn1c(-c2cccnc2[C@H](C)OC)c2c3cc(ccc31)-c1cc(O)cc(c1)C[C@H](NC(=O)[C@H](C(C)C)N(C)C(=O)N1CCN(C(=O)[C@H]3CN3)C(=O)C1)C(=O)N1CCC[C@H](N1)C(=O)OCC(C)(C)C2", "7.00 to 8.00"),
    ("CCn1c(-c2cccnc2[C@H](C)OC)c2c3cc(ccc31)-c1cc(O)cc(c1)C[C@H](NC(=O)[C@H](C(C)C)N1CC[C@@]3(CCN(C[C@@H]4CN4)C3)C1=O)C(=O)N1CCC[C@H](N1)C(=O)OCC(C)(C)C2", "7.00 to 8.00"),
    ("CCn1c(-c2cccnc2[C@H](C)OC)c2c3cc(ccc31)-c1cc(O)cc(c1)C[C@H](NC(=O)[C@H](C(C)C)N(C)C(=O)[C@H]1CCN(C(=O)C3CO3)C1)C(=O)N1CCC[C@H](N1)C(=O)OCC(C)(C)C2 (some centres unmarked)", "> 8.00"),
    ("CCn1c(-c2cccnc2[C@H](C)OC)c2c3cc(ccc31)-c1cc(O)cc(c1)C[C@H](NC(=O)[C@H](C(C)C)N(C)C(=O)N1CCN(C(=O)[C@@H]3CN3)C(=O)C1)C(=O)N1CCC[C@H](N1)C(=O)OCC(C)(C)C2", "7.00 to 8.00"),
]

###

Target: KRAS G12S (Homo sapiens, UniProt P01116+P62937, G12S)
Sequence (P01116 1-169 isoform P01116-2 G12S limits assumed): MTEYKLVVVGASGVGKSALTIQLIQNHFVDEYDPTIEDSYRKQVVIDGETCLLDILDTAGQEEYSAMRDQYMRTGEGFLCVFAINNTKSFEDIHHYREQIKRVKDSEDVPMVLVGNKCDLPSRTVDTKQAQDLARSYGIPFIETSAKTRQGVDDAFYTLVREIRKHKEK
Sequence (P62937 whole entry): as the sequence (P62937 whole entry) above
Experiment: Disruption of BRAF RBD interaction with Ras (FRET / MOA assay, with Cyclophilin A)
Assay type: biochemical
Conditions: read-out: KRAS G12S FRET data, IC50

# COMPOUND, IC50
data = [
    ("C=CC(=O)N1CC[C@H](C(=O)N(C)[C@H](C(=O)N[C@H]2Cc3cc(O)cc(c3)-c3ccc4c(c3)c(c(C3=C(COC)CCCC3)n4CC)CC(C)(C)COC(=O)[C@@H]3CCCN(N3)C2=O)C(C)C)C1", "100 to 1000 nM"),
    ("CCn1c(-c2cccnc2[C@H](C)OC)c2c3cc(ccc31)-c1cc(sn1)C[C@H](NC(=O)[C@H](C(C)C)N(C)C(=O)[C@@H]1CCN(C(=O)C#CCN3CCOCC3)C1)C(=O)N1CCC[C@H](N1)C(=O)OCC(C)(C)C2", "> 10000 nM"),
    ("CCn1c(-c2cccnc2[C@H](C)OC)c2c3cc(ccc31)-c1csc(n1)C[C@H](NC(=O)[C@H](C(C)C)N(C)C(=O)N(C)CC(C)C)C(=O)N1CCC[C@H](N1)C(=O)OCC(C)(C)C2", "100 to 1000 nM"),
    ("CCn1c(-c2cccnc2[C@H](C)OC)c2c3cc(ccc31)-c1cc(O)cc(c1)C[C@H](NC(=O)[C@H](C(C)C)N(C)C(=O)[C@H]1CCN(C(=O)C(C)(C)N(C)C)C1)C(=O)N1CCC[C@H](N1)C(=O)OCC(C)(C)C2 (atropisomer, axis not shown)", "10 to 100 nM"),
]

###

Target: KRAS G12S (Homo sapiens, UniProt P01116+P62937, G12S)
Test: Disruption of BRAF RBD interaction with Ras (FRET / MOA assay, with Cyclophilin A)
Format: biochemical
Conditions: read-out: KRAS G12S FRET data, IC50

# MOLECULE, IC50
records = [
    ("CCn1c(-c2cccnc2[C@H](C)OC)c2c3cc(ccc31)-c1cc(O)cc(c1)C[C@H](NC(=O)[C@H](C(C)C)N(C)C(=O)[C@@H]1CCN[C@@H]1c1ccccc1)C(=O)N1CCC[C@H](N1)C(=O)OCC(C)(C)C2 (atropisomer, axis not shown)", "10 to 100 nM"),
    ("CCn1c(-c2cccnc2COC)c2c3cc(ccc31)-c1cc(O)cc(c1)C[C@H](NC(=O)[C@H](C(C)C)N(C)C(=O)[C@H]1CCNC1)C(=O)N1CCC[C@H](N1)C(=O)OCC(C)(C)C2", "100 to 1000 nM"),
    ("C=CC(=O)N1CC[C@H](C(=O)N(C)[C@H](C(=O)N[C@H]2Cc3nc(cs3)-c3ccc4c(c3)c(c(-c3cccnc3[C@H](C)OC)n4CC)CC(C)(C)CN(C)C[C@@H]3CCCN(N3)C2=O)C(C)C)C1", "> 10000 nM"),
    ("CCn1c(-c2cc(N3CCN(C)CC3)cnc2[C@H](C)OC)c2c3cc(ccc31)-c1csc(n1)C[C@H](NC(=O)[C@H](C1CCCC1)N(C)C(=O)N1CCC1)C(=O)N1CCC[C@H](N1)C(=O)OCC(C)(C)C2 (atropisomer, axis not shown)", "10 to 100 nM"),
]

###

Target: KRAS Q61H (Homo sapiens, UniProt P01116+P62937, Q61H)
Sequence (P01116 1-169 isoform P01116-2 Q61H limits assumed, one chain of several): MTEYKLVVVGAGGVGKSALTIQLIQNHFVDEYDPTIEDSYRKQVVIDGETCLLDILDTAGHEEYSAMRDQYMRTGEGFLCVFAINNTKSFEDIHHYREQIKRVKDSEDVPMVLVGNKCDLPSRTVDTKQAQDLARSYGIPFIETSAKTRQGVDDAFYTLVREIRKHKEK
Assay: Disruption of BRAF RBD interaction with Ras (FRET / MOA assay, with Cyclophilin A)
Assay type: biochemical
Settings: KRAS Q61H; read-out: KRAS Q61H FRET data IC50
pIC50: −log10 of the molar value.
ENDPOINT NAME: pIC50

# MOLECULE, RESULT VALUE
records = [
    ("CCn1c(-c2cc(N3CCN(C)CC3)cnc2[C@H](C)OC)c2c3cc(ccc31)-c1csc(n1)C[C@H](NC(=O)[C@H](C(C)C)N(C)C(=O)N1CCOCC1)C(=O)N1CCC[C@H](N1)C(=O)OCC(C)(C)C2 (atropisomer, axis not shown)", "7.00 to 8.00"),
    ("CCn1c(-c2cccnc2[C@H](C)OC)c2c3cc(ccc31)-c1csc(n1)C[C@H](NC(=O)[C@H](C(C)C)N(C)C(=O)N1CC3(CCN(C)CC3)C1)C(=O)N1CCC[C@H](N1)C(=O)OCC(C)(C)C2", "6.00 to 7.00"),
]

###

In this section we review reported pIC50 values for a set of compounds.
Target: NRAS Q61K (Homo sapiens, UniProt P01111+P62937, Q61K)
Sequence (P01111 whole entry Q61K, one chain of several): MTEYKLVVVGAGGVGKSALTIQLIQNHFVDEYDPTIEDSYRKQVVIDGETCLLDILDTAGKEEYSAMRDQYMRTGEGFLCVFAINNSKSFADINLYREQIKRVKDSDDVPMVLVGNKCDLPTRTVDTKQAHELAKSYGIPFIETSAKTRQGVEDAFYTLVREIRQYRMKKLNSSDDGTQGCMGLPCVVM
Test: Ras-Raf disruption / FRET / MOA assay (BRAF RBD)
Format: biochemical
pIC50: −log10 of the molar value.
ENDPOINT NAME: pIC50

# COMPOUND, ENDPOINT NAME, RESULT VALUE
rows = [
    ("CCn1c(-c2cccnc2[C@H](C)OC)c2c3cc(ccc31)-c1cc(O)cc(c1)C[C@H](NC(=O)[C@H](C1CCCC1)N(C)C(=O)CN(C)C(=O)[C@H]1N[C@H]1C1(F)CC1)C(=O)N1CCC[C@H](N1)C(=O)OCC(C)(C)C2 [Example 315]", "pIC50", "7.00 to 8.00"),
    ("CCn1c(-c2cccnc2[C@H](C)OC)c2c3cc(ccc31)-c1cc(O)cc(c1)C[C@H](NC(=O)[C@H](C(C)C)N(C)C(=O)CN(C)C(=O)[C@@H]1N[C@@H]1C1COC1)C(=O)N1CCC[C@H](N1)C(=O)OCC(C)(C)C2 [Example 281]", "pIC50", "7.00 to 8.00"),
    ("CCn1c(-c2cc(C3CCN(C)CC3)cnc2[C@H](C)OC)c2c3cc(ccc31)-c1cc(O)cc(c1)C[C@H](NC(=O)[C@H](C1CCCC1)N(C)C(=O)CN(C)C(=O)[C@H]1CN1)C(=O)N1CCC[C@H](N1)C(=O)OCC(C)(C)C2 [Example 230]", "pIC50", "6.00 to 7.00"),
    ("CCn1c(-c2cccnc2[C@H](C)OC)c2c3cc(ccc31)-c1cc(O)cc(c1)C[C@H](NC(=O)[C@H](C(C)C)N(C)C(=O)CN(C)C(=O)[C@@H]1N[C@@H]1C(F)(F)F)C(=O)N1CCC[C@H](N1)C(=O)OCC(C)(C)C2 [Example 258]", "pIC50", "7.00 to 8.00"),
    ("CCn1c(-c2cccnc2[C@H](C)OC)c2c3cc(ccc31)-c1cc(O)cc(c1)C[C@H](NC(=O)[C@H](C1CCCC1)N(C)C(=O)CN(C)C(=O)[C@H]1N[C@H]1C1(OC)CC1)C(=O)N1CCC[C@H](N1)C(=O)OCC(C)(C)C2 (single isomer, unassigned) [Example 322]", "pIC50", "6.00 to 7.00"),
    ("CCn1c(-c2cccnc2[C@H](C)OC)c2c3cc(ccc31)-c1cc(O)cc(c1)C[C@H](NC(=O)[C@H](C1CCCC1)N(C)C(=O)CN(C)C(=O)[C@H]1N[C@H]1C1(C#N)CC1)C(=O)N1CCC[C@H](N1)C(=O)OCC(C)(C)C2 [Example 316]", "pIC50", "6.00 to 7.00"),
    ("CCn1c(-c2cccnc2[C@H](C)OC)c2c3cc(ccc31)-c1cc(O)cc(c1)C[C@H](NC(=O)[C@H](C(C)C)N(C)C(=O)CN(C)C(=O)[C@@]1(C)CN1)C(=O)N1CCC[C@H](N1)C(=O)OCC(C)(C)C2 [Example 256]", "pIC50", "6.00 to 7.00"),
    ("CCn1c(-c2cccnc2[C@H](C)OC)c2c3cc(ccc31)-c1cc(O)cc(c1)C[C@H](NC(=O)[C@H](C(C)C)N(C)C(=O)CN(C)C(=O)[C@H]1N[C@H]1C1CCC1)C(=O)N1CCC[C@H](N1)C(=O)OCC(C)(C)C2 [Example 288]", "pIC50", "6.00 to 7.00"),
]
